Recorded measurements of IC50, one per entry
- tested-target: human PCSK9 / human LDLR EGFa domain interaction (Homo sapiens)
- Sequence (Q8NBP7 153-692): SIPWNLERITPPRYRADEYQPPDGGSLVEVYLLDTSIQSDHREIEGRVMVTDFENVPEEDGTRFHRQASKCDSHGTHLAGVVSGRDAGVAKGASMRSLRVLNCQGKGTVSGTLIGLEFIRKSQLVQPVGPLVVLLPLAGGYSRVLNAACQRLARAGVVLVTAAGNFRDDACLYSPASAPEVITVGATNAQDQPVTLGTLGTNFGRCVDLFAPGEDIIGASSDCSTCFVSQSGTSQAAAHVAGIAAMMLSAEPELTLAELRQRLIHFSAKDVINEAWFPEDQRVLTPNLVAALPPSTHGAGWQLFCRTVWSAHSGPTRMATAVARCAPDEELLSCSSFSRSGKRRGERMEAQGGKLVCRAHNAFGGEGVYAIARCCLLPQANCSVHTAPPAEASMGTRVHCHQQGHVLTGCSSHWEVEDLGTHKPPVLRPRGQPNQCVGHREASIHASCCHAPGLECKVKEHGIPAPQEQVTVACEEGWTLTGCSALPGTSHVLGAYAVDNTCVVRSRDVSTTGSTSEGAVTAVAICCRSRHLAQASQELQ
- Sequence (Q8NBP7 31-152 partner limits assumed): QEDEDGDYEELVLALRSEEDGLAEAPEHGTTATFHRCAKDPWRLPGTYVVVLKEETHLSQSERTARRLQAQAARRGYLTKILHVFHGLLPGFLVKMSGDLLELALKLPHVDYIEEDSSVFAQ
- assay-details: TR-FRET assay of inhibition of the PCSK9-LDLR protein-protein interaction
- Type: binding
- experimental-conditions: 20 nM biotinylated human PCSK9 + 20 nM his-tagged human LDLR EGFa domain, 2 hours room temperature
*1 amine or outer side, *2 acyl side, *3 side chain or, on linkers, in order; H or OH if unused. Where a SMILES comes first, the peptide text is derived from it. Bridges are numbered along the chain shown (N, C = ends). [ ]: non-standard residue; d: D form. Ala(benzothiazol-2-yl) = N[C@@H](Cc1nc2ccccc2s1)C(=O)O; Phe(4-guanidino) = N=C(N)Nc1ccc(C[C@H](N)C(=O)O)cc1; Trp(7-aza) = N[C@@H](Cc1c[nH]c2ncccc12)C(=O)O; Pro(4S-NH2) = N[C@@H]1CN[C@H](C(=O)O)C1; X2 = O=C(CCSCc1cccc(CSCCN[*:1])c1)[*:2]; 1Nal = N[C@@H](Cc1cccc2ccccc12)C(=O)O; mXylylene = c1cc(C[*:1])cc(C[*:2])c1; Val(3-OH) = CC(C)(O)[C@H](N)C(=O)O; Aad = N[C@@H](CCCC(=O)O)C(=O)O; Chg = N[C@H](C(=O)O)C1CCCCC1; Tle = CC(C)(C)[C@H](N)C(=O)O; αMeK = C[C@](N)(CCCCN)C(=O)O; αMeV = CC(C)[C@](C)(N)C(=O)O; Nva = CCC[C@H](N)C(=O)O; Ahx = NCCCCCC(=O)O; GABA = NCCCC(=O)O; Mpa = O=C(O)CCS

Here is how some compounds turned out for IC50.
Dear colleague, please send me the reported IC50 for CCC[C@@H]1NC(=O)[C@H](Cc2c[nH]c3ncccc23)NC(=O)[C@H]([C@@H](C)O)NC(=O)[C@H](Cc2cnc[nH]2)NC(=O)[C@H](Cc2ccc(O)cc2)NC(=O)[C@H](C(C)(C)C)NC(=O)CCSCc2cccc(c2)CSC[C@H](C(N)=O)NC(=O)[C@H](C(C)(C)O)NC(=O)[C@H](CCC)NC(=O)[C@H](Cc2ccc(O)cc2)NC(=O)[C@H](CCC(=O)O)NC1=O [Compound 044] ([Mpa][Tle]YHT[Trp(7-aza)][Nva]EY[Nva][Val(3-OH)][dC]-NH2; linker 1-12 via mXylylene) when you can. 0.1 to 1 µM

Dear colleague, please send me the reported IC50 for CCC[C@H](NC(=O)[C@H](Cc1c[nH]c2ncccc12)NC(=O)[C@H](NC(C)=O)[C@@H](C)O)C(=O)NC1CCC(=O)NCCCCCNC(=O)[C@H](Cc2ccc(O)cc2)NC(=O)[C@H](C(C)(C)C)NC(=O)CCSCc2cccc(c2)CSC[C@H](C(N)=O)NC(=O)[C@H]([C@@H](C)O)NC(=O)[C@H](C2CCCCC2)NC(=O)[C@H](Cc2ccc(O)cc2)NC1=O (stereo partly drawn) when you can. 1 to 12.1 µM

Dear colleague, please send me the reported IC50 for CCC[C@@H]1NC(=O)[C@H](Cc2nc3ccccc3s2)NC(=O)[C@H]([C@@H](C)O)NC(=O)[C@H](Cc2cnc[nH]2)NC(=O)[C@H](Cc2ccc(O)cc2)NC(=O)[C@H](C(C)(C)C)NC(=O)CCSCc2cccc(c2)CSC[C@@H](C(N)=O)NC(=O)[C@H]([C@@H](C)O)NC(=O)[C@H](CCC)NC(=O)[C@H](Cc2ccc(O)cc2)NC(=O)[C@H](CCC(=O)O)NC1=O [Compound 084] ([Mpa][Tle]YHT[Ala(benzothiazol-2-yl)][Nva]EY[Nva]TC-NH2; linker 1-12 via mXylylene) when you can. 0.1 to 1 µM

Others:
Dear colleague, please send me the reported IC50 for CC(C)[C@]1(C)NC(=O)[C@H](Cc2ccc(O)cc2)NC(=O)[C@H](C)NC(=O)[C@](C)(CCCCN)NC(=O)[C@H](Cc2c[nH]c3ncccc23)NC(=O)[C@H]([C@@H](C)O)NC(=O)[C@@H]2CCCN2C(=O)[C@H](Cc2ccc(O)cc2)NC(=O)[C@H](C(C)(C)C)NC(=O)CCSCc2cccc(c2)CSC[C@@H](C(N)=O)NC(=O)[C@H]([C@@H](C)O)NC1=O [Compound 023] ([Mpa][Tle]YPT[Trp(7-aza)][αMeK]AY[αMeV]TC-NH2; linker 1-12 via mXylylene) when you can. 0.001 to 0.1 µM

Dear colleague, please send me the reported IC50 for CCC[C@@H]1NC(=O)[C@H](Cc2c[nH]c3ncccc23)NC(=O)[C@H]([C@@H](C)O)NC(=O)[C@@H]2CCCCNC(=O)CC[C@@H](NC1=O)C(=O)N[C@@H](Cc1ccc(O)cc1)C(=O)N[C@@H](C1CCCCC1)C(=O)N[C@@H]([C@@H](C)O)C(=O)NCCCC(=O)NCCCCCC(=O)N[C@@H](C(C)(C)C)C(=O)N[C@@H](Cc1ccc(O)cc1)C(=O)N2 [Compound 117] (cyclo([Ahx][Tle]YKT[Trp(7-aza)][Nva][dE]Y[Chg]T[GABA]); lactam 4-8) when you can. 0.1 to 1 µM

Dear colleague, please send me the reported IC50 for CCC[C@@H]1NC(=O)[C@H](Cc2c[nH]c3ncccc23)NC(=O)[C@H]([C@@H](C)O)NC(=O)[C@H](Cc2cnc[nH]2)NC(=O)[C@H](Cc2ccc(O)cc2)NC(=O)[C@H](C(C)(C)C)NC(=O)CCSCc2cccc(c2)CSC[C@@H](C(N)=O)NC(=O)[C@H]([C@@H](C)O)NC(=O)[C@H](Cc2ccc(O)cc2)NC(=O)[C@H](Cc2ccc(O)cc2)NC(=O)[C@H](CCC(=O)O)NC1=O [Compound 071] ([Mpa][Tle]YHT[Trp(7-aza)][Nva]EYYTC-NH2; linker 1-12 via mXylylene) when you can. 0.1 to 1 µM

Dear colleague, please send me the reported IC50 for CCC[C@@H]1NC(=O)[C@H](Cc2ccc(NC(=N)N)cc2)NC(=O)[C@H]([C@@H](C)O)NC(=O)[C@H](Cc2cnc[nH]2)NC(=O)[C@H](Cc2ccc(O)cc2)NC(=O)[C@H](C(C)(C)C)NC(=O)CCSCc2cccc(c2)CSC[C@@H](C(N)=O)NC(=O)[C@H]([C@@H](C)O)NC(=O)[C@H](CCC)NC(=O)[C@H](Cc2ccc(O)cc2)NC(=O)[C@H](CCC(=O)O)NC1=O [Compound 055] ([Mpa][Tle]YHT[Phe(4-guanidino)][Nva]EY[Nva]TC-NH2; linker 1-12 via mXylylene) when you can. 1 to 12.1 µM

Dear colleague, please send me the reported IC50 for CCC[C@@H]1NC(=O)[C@H](Cc2c[nH]c3ncccc23)NC(=O)[C@H]([C@@H](C)O)NC(=O)[C@@H]2C[C@H](N)CN2C(=O)[C@H](Cc2ccc(O)cc2)NC(=O)[C@H](C(C)(C)C)NC(=O)CCSCc2cccc(c2)CSC[C@@H](C(N)=O)NC(=O)[C@H]([C@@H](C)O)NC(=O)[C@H](C2CCCCC2)NC(=O)[C@H](Cc2ccc(O)cc2)NC(=O)[C@H](CCCC(=O)O)NC1=O [Compound 010] ([Mpa][Tle]Y[Pro(4S-NH2)]T[Trp(7-aza)][Nva][Aad]Y[Chg]TC-NH2; linker 1-12 via mXylylene) when you can. 0.1 to 1 µM

Dear colleague, please send me the reported IC50 for CCC[C@@H]1NC(=O)[C@H](Cc2cccc3ccccc23)NC(=O)[C@H]([C@@H](C)O)NC(=O)[C@@H]2CCCN2C(=O)[C@H](Cc2ccccc2)NC(=O)[C@H](C(C)C)NC(=O)CCSCc2cccc(c2)CSCCNC(=O)[C@H](C)NC(=O)[C@](C)(C(C)C)NC(=O)[C@H](Cc2ccccc2)NC(=O)[C@H](C)NC1=O [Compound 022] (cyclo([1Nal][Nva]AF[αMeV]A[X2]VFPT)) when you can. 0.1 to 1 µM
